Tested on: cathepsin L1 (Fasciola hepatica)
Test: CTSL1 protease inhibition, fluke enzyme – biochemical, QFRET, fluorogenic peptide substrate, counter-screen for PFM18AAP inhibitor project, primary screen (AID 1906);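 further: 0% = plate median of test compound wells and 100% = 1 µM Z-Phe-Ala-diazomethylketone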
Details: recombinant F. hepatica cathepsin L1, Z-Leu-Arg-MCA fluorescence; at 5.96 µM
Hit rate of the full screen: of about 300,000 compounds, about 1,500 (0.5%) were called active.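 How the source made its calls: active means inhibition above the mean of all tested compounds plus 3 SD, set per screening campaign (cut at about 17% in these data); inactive means the rest.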 Many of the other results were omitted from the sample, so actives are more common in it than they were.
Parameter call: string, one of active, inactive

COc1cccc(-c2cc3nc4c(c(N5CCC6(CC5)OCCO6)n3n2)CCCC4)c1 = inactive

-- ask Please let me know the test result on file for CCCCCCCNC(=O)C1(CC2CC(c3cccc(Br)c3)=NO2)CCN(C(=O)c2cc(OCC)c(OCC)c(OCC)c2)CC1 (stereo not given) .
-- reply active

-- ask Returns: the outcome recorded for COc1ccccc1C(=O)Nc1ccc(OCc2nnc3c4ccccc4c(C)nn23)cc1 in this assay.
-- reply inactive

-- ask Give the logged outcome of this assay for the following compound: O=c1c2ccccc2cnn1Cc1n[nH]c(=S)n1-c1ccccc1F
-- reply inactive

-- ask How was Cc1ccc(NC(=S)N(CCCN2CCC(C)CC2)Cc2ccco2)cc1 classified in this test?
-- reply inactive

-- ask Hey, what did the test say about Cc1c(C=O)c2ccccc2n1CCOc1ccccc1 ?
-- reply inactive

-- ask Hi, do you know how O=C(c1ccccc1)N1CCC(CC2CC(c3ccc(Cl)cc3)=NO2)(C(=O)NCC2CCCCC2)CC1 (stereo not given) came out in this test?
-- reply inactive

---

Tested on: cathepsin L1 (Fasciola hepatica)
Assay: CTSL1 protease inhibition, fluke enzyme – biochemical, QFRET, fluorogenic peptide substrate, counter-screen for PFM18AAP inhibitor project, primary screen (AID 1906);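 further: 0% = plate median of test compound wells and 100% = 1 µM Z-Phe-Ala-diazomethylketone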
Details: recombinant F. hepatica cathepsin L1, Z-Leu-Arg-MCA fluorescence; at 5.96 µM; stronger effect = higher value
The campaign covered roughly 300,000 compounds. About 1,500 (0.5%) were called active. Shown is part of a subset that was picked to be rich in actives.
property: inhibition (%)
A number alone suffices; assume %.

O=c1[nH]c(N2CCOCC2)nc2ccccc12 = 0.18

-- ask Name the reported inhibition value associated with the molecule O=C(COc1ccc(S(=O)(=O)N2CCCCC2)cc1)NCc1ccccn1
-- reply -1.94

-- ask Recorded inhibition of COc1cccc(N(C(=O)C2COc3ccccc3O2)C(C(=O)NC2CCCCC2)c2ccc(O)cc2)c1 (stereo not given) , please.
-- reply 4.68

-- ask Consider the molecule shown here: COc1ccc(CC(NC(C)=O)C(=O)N2CCN(C(=O)Nc3cccc(Cl)c3)CC2)cc1OC (stereo not given) What is its recorded inhibition?
-- reply -4.54

-- ask Quick one: inhibition for COc1ccc(C(C(=O)NC2CCCCC2)N(C(=O)CCl)c2ccccc2Cl)cc1 (stereo not given) ?
-- reply 25.3

---

Listed below: inhibition values for each entry.
Tested on: cathepsin L1 (Fasciola hepatica)
Experiment: CTSL1 protease inhibition, fluke enzyme – biochemical, QFRET, fluorogenic peptide substrate, counter-screen for PFM18AAP inhibitor project, primary screen (AID 1906);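 further: 0% = plate median of test compound wells and 100% = 1 µM Z-Phe-Ala-diazomethylketone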
Conditions: recombinant F. hepatica cathepsin L1, Z-Leu-Arg-MCA fluorescence; at 5.96 µM; stronger effect = higher value
In all, about 300,000 compounds went through this assay and about 1,500 (0.5%) were called active. This is one part of a sample in which actives are shown more often than they occur.
Reply numerically in %, unit not repeated.

CC(C(=O)NCCc1ccc(S(N)(=O)=O)cc1)N1C(=O)CC(C)(C)Sc2ccccc21 (configuration not stated) = 3.12
C[C@H](NC(=O)OC(C)(C)C)c1nnc(SCC(=O)Nc2ccc(Br)cc2)o1 = 9.5
CCc1ccccc1NC(=O)CSc1nnc([C@@H](NC(=O)OC(C)(C)C)C(C)C)o1 = 25.9
Cc1ccccc1OCC(=O)Nc1nnc(S(=O)(=O)N2CCCC2)s1 = 3.28
N#Cc1nc(N)nc(N(c2ccccc2)c2ccccc2)n1 = 56.4
COc1ccc(C(CCN(Cc2ccc(OC)c(OC)c2)C(=O)CCl)c2ccccc2)cc1 (configuration not stated) = 59.9
O=C(NCc1ccccc1Cl)C1CCCN1S(=O)(=O)c1ccc(F)cc1 (configuration not stated) = -1.27
COc1ccc(CN(C)C(=O)CC(c2ccccc2)c2ccccc2)cc1 = 2.03

-- ask Record lookup: for cathepsin L1 (Fasciola hepatica), what inhibition belongs to CCn1c(SCC(=O)NC2=NCCS2)nnc1C(C)NC(=O)c1ccccc1F (configuration not stated) ?
-- reply -7.21

-- ask # value lookup — system cathepsin L1 (Fasciola hepatica), readout inhibition, item COc1ccccc1Oc1ccc(N/C=C2/CCCC2=O)cc1
-- reply 6.01

-- ask Hello, I am looking for reported inhibition with cathepsin L1 (Fasciola hepatica) for Cc1cccc(NC(=O)CSc2nnc(CCNC(=O)OC(C)(C)C)o2)c1C . Could you help?
-- reply -2.25
